# Test system: HCC-2998 colon
# METHOD: NCI-60 one-dose screen, 48 h
# MEASUREMENT CONDITIONS: 10 µM
This is part of a sample that, as a whole, favours compounds with a hit. Of some 83,000 tested, about 20% had one in any assay. Calls of active or inactive are those of the source. Rule for the calls: active = growth percent below 10; inactive = the rest.
Write down one outcome, taken from active, inactive

{"MOLECULE": "Cn1cnc([N+](=O)[O-])c1/C=C1\\Oc2ccc(Cl)cc2C1=O", "TARGET ENTITY": "HCC-2998 colon", "ASSIGNED CATEGORY": "inactive"}
{"MOLECULE": "COc1ccc(-c2nc(-c3ccccc3)c(-c3ccccc3)[nH]2)cc1OC1CCCC1", "TARGET ENTITY": "HCC-2998 colon", "ASSIGNED CATEGORY": "inactive"}
{"MOLECULE": "CCCCCCCCCCCC(=O)NCCCN(C)C", "TARGET ENTITY": "HCC-2998 colon", "ASSIGNED CATEGORY": "inactive"}
{"MOLECULE": "COc1cc(C)c2sc3ccccc3c(=O)c2c1NCCN(C)C", "TARGET ENTITY": "HCC-2998 colon", "ASSIGNED CATEGORY": "inactive"}
{"MOLECULE": "Cc1nn2c(/C=C3/C(=O)Nc4ccc(Cl)cc43)c(-c3ccccc3)nc2s1", "TARGET ENTITY": "HCC-2998 colon", "ASSIGNED CATEGORY": "inactive"}
{"MOLECULE": "COc1cc([C@@H]2c3cc4c(cc3[C@H](SC(=N)N)[C@H]3COC(=O)[C@H]23)OCO4)cc(OC)c1OC", "TARGET ENTITY": "HCC-2998 colon", "ASSIGNED CATEGORY": "active"}

input: Per the assay record, what outcome was assigned to `O=C(O)CN1C(=O)C=CC1=O` ?
output: inactive

input: Per the assay record, what outcome was assigned to `COc1ccc(/C=C2\SC(=S)N(CCCN3CCOCC3)C2=O)c(OC)c1` ?
output: inactive

* * *

# Test system: MALME-3M melanoma
# METHOD: NCI-60 one-dose screen, 48 h (100 = growth as untreated, 0 = no growth, -100 = all killed)
# MEASUREMENT CONDITIONS: 10 µM
Compounds without any hit were thinned out: in the full panel of roughly 83,000, 20% have a hit.
Classify by measured growth: Yes if it is equal to or exceeds 70%, No if it is smaller.

Completed entries (count: 5):
{"MOLECULE": "O=C1/C(=C/c2ccc([N+](=O)[O-])s2)Oc2ccc(Cl)cc21", "TARGET ENTITY": "MALME-3M melanoma", "ASSIGNED CATEGORY": "No"}
{"MOLECULE": "Fc1ccc2[nH]c3c(NCCCN4CCOCC4)ncnc3c2c1", "TARGET ENTITY": "MALME-3M melanoma", "ASSIGNED CATEGORY": "No"}
{"MOLECULE": "O=C(COCc1c(-c2ccccc2)no[n+]1[O-])Nc1nc(-c2ccc(Cl)cc2)cs1", "TARGET ENTITY": "MALME-3M melanoma", "ASSIGNED CATEGORY": "Yes"}
{"MOLECULE": "N#Cc1ncc(-c2cc(F)ccc2F)c(NC2CCCCCC2)n1", "TARGET ENTITY": "MALME-3M melanoma", "ASSIGNED CATEGORY": "Yes"}
{"MOLECULE": "CCOC(=O)/C(C#N)=C(/C)C1CC1", "TARGET ENTITY": "MALME-3M melanoma", "ASSIGNED CATEGORY": "Yes"}

Okay, next one:
input: Evaluate COc1cc(C2C=C(c3ccc(Cl)c(Cl)c3)N=C3SC(C)=CN32)cc(OC)c1OC (stereo unspecified) : growth at minimum 70%?
output: Yes

* * *

# Test system: HT29 colon
# METHOD: NCI-60 one-dose screen, 48 h (100 = growth as untreated, 0 = no growth, -100 = all killed)
# MEASUREMENT CONDITIONS: 10 µM
Compounds without any hit were thinned out: in the full panel of roughly 83,000, 20% have a hit.
Below, each entry is listed with its recorded growth.
Hi! Could you send only the number? It should be in %, unit omitted.

Example entries and their recorded answers appear below.
{"COMPOUND": "COc1ccc2nc(NC(=O)Nc3c(F)cccc3F)sc2c1", "REPORTED RESULT": 102}
{"COMPOUND": "Cc1cc(C)c2nc(C)c(C)[n+]([O-])c2c1", "REPORTED RESULT": 96.3}
{"COMPOUND": "OC(CNC1CCCC1)Cn1c2ccccc2c2ccccc21 (stereo unspecified)", "REPORTED RESULT": -0.747}
{"COMPOUND": "O=C(CCl)N1c2ccccc2Sc2ccc3ccccc3c21", "REPORTED RESULT": -76.1}
{"COMPOUND": "O=C1c2cc(Cl)ccc2-c2c(O)cc(Cl)cc21", "REPORTED RESULT": 95.1}

input: Find the recorded growth belonging to `c1ccc(OCCC[P+](c2ccccc2)(c2ccccc2)c2ccccc2)cc1` and report it.
output: 4.29

* * *

# Tested on: OVCAR-5 ovarian
# METHOD: NCI-60 one-dose screen, 48 h (100 = growth as untreated, 0 = no growth, -100 = all killed)
# MEASUREMENT CONDITIONS: 10 µM
About 83,000 compounds went through this panel and 20% of them were active in at least one assay; those are over-represented in the sample as a whole.
Below, each entry is listed with its recorded growth.
Hi! Could you send only the number? It should be in %, unit omitted.

Example entries and their recorded answers appear below.
{"COMPOUND": "NC1CCC(Nc2nc(NCc3ccc(-c4ccccc4O)nc3)c3ncn(C4CCCC4)c3n2)CC1 (stereo not given)", "growth, %": 19.3}
{"COMPOUND": "C=C[C@]1(C)C=C2C(=O)[C@@]3(O)OC(=O)[C@@]4(CCCC(C)(C)[C@H]34)[C@@]2(O)CC1", "growth, %": -71.7}
{"COMPOUND": "COc1ccc(-c2nsc3c2NC(=O)CC3c2cccc(Cl)c2)cc1 (stereo not given)", "growth, %": 32.8}
{"COMPOUND": "CCOC(=O)c1cc(-c2ccccc2)nc(N)n1", "growth, %": 98.2}
{"COMPOUND": "CC(C)C[C@H](NC(=O)Cn1ccc(Nc2ccccc2)cc1=O)B(O)O", "growth, %": 33.9}
{"COMPOUND": "O=C1NN(c2ccccc2)C(c2cccnc2)=N/C1=C\\c1cccnc1", "growth, %": 85.8}
{"COMPOUND": "Cc1ccc(/C(CS(=O)(=O)c2ccc(C)cc2)=N\\O)cc1", "growth, %": 90.9}
{"COMPOUND": "COc1ccc(OC)c([N+](=O)[O-])c1C=O", "growth, %": 107}
{"COMPOUND": "CCOc1cc(Br)c(C(C)NC(=O)c2cccc(OC)c2)cc1OCC (stereo not given)", "growth, %": 88.7}
{"COMPOUND": "COc1ccc2nc(-c3ccccc3)cc(C(C)=O)c2c1", "growth, %": 92.4}

input: Find the recorded growth belonging to `CC(=O)/C(=C\c1ccc(Cl)cc1)c1ccccc1` and report it.
output: 51.5

input: Find the recorded growth belonging to `CCCCCCCCCCCCCCCCCBr` and report it.
output: 100

input: Find the recorded growth belonging to `CCNC(=S)NN` and report it.
output: 69.3

input: Find the recorded growth belonging to `C=CCc1cc(Nc2c3ccc(Cl)cc3nc3ccc(OC)cc23)cc(CN(CC)CC)c1O` and report it.
output: 47.5

input: Find the recorded growth belonging to `N#Cc1ncc(-c2cc(F)ccc2F)c(NC2CCCCCC2)n1` and report it.
output: 98.9

input: Find the recorded growth belonging to `CCOc1nc(-c2ccccc2)cc2c(O)c(C(=O)NC(C)C)[nH]c(=O)c12` and report it.
output: 114

input: Find the recorded growth belonging to `C=CCn1c(C)nc2cc(Nc3nc(Nc4ccc5nc(C)n(CC=C)c5c4)c4ccccc4n3)ccc21` and report it.
output: -92.5

input: Find the recorded growth belonging to `COc1cc(NS(C)(=O)=O)ccc1Nc1c2ccc(Cl)cc2nc2c(OC)cccc12` and report it.
output: -11.9

input: Find the recorded growth belonging to `Fc1ccc2[nH]c3c(NCCCN4CCOCC4)ncnc3c2c1` and report it.
output: 85.6

input: Find the recorded growth belonging to `CCc1c(C(=O)NCc2c(O)ccc3cccc(O)c23)[nH]c(C)c1C(C)=O` and report it.
output: 90.4

input: Find the recorded growth belonging to `N#Cc1ccc(-n2cnc(NC(=O)[C@H]3CCN(C#N)C3)c2)cc1` and report it.
output: 23.8

input: Find the recorded growth belonging to `CCOc1ccc2c(c1)CC[C@@H]1[C@@H]2CC[C@]2(C)[C@@H](O)[C@@H](O)C[C@@H]12` and report it.
output: 95.7

input: Find the recorded growth belonging to `COc1ccc(-c2ccc(-c3ccc(C(=N)N)c(F)c3)s2)cc1` and report it.
output: -91.7

input: Find the recorded growth belonging to `Cc1ccc(S(=O)(=O)N2CCc3ccccc3CC2)cc1` and report it.
output: 94.3

input: Find the recorded growth belonging to `Cc1nnc2c3nnc(-c4ccc(Cl)cc4)n3c3ccccc3n12` and report it.
output: 100

input: Find the recorded growth belonging to `O=[N+]([O-])c1ccc(-c2nc(-c3ccccc3)c(-c3ccccc3)n2-c2ccccc2)cc1` and report it.
output: 91.5
